Assay name: self-splicing fitness, log relative to wild type (ln ratio); higher = more splicing; Tetrahymena group I intron in knt gene, E. coli kanamycin selection, DiMSum; sequences stand for … in CUCUCU…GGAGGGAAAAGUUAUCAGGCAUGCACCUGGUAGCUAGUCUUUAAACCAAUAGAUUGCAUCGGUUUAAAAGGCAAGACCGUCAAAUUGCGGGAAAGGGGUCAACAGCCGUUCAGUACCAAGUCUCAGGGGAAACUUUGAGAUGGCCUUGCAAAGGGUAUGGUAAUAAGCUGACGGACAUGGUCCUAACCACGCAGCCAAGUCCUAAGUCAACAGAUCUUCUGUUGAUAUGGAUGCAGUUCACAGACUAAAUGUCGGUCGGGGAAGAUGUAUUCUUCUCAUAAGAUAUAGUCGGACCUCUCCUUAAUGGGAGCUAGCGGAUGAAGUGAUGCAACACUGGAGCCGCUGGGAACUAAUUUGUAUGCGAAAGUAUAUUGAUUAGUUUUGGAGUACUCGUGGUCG;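 note: selection with 25 µg/mL kanamycin versus none on LB agar overnight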
Condition details: 30 °C
Value kind: self-splicing fitness (ln)

> print(dat)
         sequence.entry                  value.kind  quantitative.result
1  AGCGAGCAAUAUUACGGUGA  self-splicing fitness (ln)                -3.59
2  GACUAGCAAUAUUACGGACU  self-splicing fitness (ln)               -0.117
3  AGUCAGCAAUAUUACGGCUG  self-splicing fitness (ln)               -0.616
4  GGAGAGCAAUAUUACGUUGG  self-splicing fitness (ln)                -4.09
5  GCAAAGCAAUAUUACGCUUU  self-splicing fitness (ln)                -3.49
6  GCUAAGCAAUAUUACGGUGC  self-splicing fitness (ln)                -3.38
7  CCUUAGCAAUAUUACGUAUG  self-splicing fitness (ln)                -2.98
8  CCUGAGCAAUAUUACGUAGC  self-splicing fitness (ln)                -4.49

###

# reported self-splicing fitness (ln); entries follow
Assay name: self-splicing fitness, log relative to wild type (ln ratio); higher = more splicing; Tetrahymena group I intron in knt gene, E. coli kanamycin selection, DiMSum; sequences stand for … in CUCUCU…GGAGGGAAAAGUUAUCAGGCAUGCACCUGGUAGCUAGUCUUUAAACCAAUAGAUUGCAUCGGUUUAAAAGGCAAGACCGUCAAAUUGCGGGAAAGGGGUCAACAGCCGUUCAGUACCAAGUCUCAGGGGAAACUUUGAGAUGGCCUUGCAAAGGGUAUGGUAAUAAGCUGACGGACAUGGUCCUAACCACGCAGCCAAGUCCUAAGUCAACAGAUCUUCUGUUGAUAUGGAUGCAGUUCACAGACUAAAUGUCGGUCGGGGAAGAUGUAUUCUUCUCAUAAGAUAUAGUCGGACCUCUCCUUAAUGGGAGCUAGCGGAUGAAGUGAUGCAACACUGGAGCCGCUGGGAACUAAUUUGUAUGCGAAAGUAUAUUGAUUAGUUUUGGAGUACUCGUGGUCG
Condition details: 30 °C
Value kind: self-splicing fitness (ln)

> print(dat)
          sequence.entry  quantitative.result
 1  GCGUAGCAAUAUUACGUGCG                -4.01
 2  UGUGAGCAAUAUUACGUGCA                 -1.1
 3  AGCUAGCAAUAUUACGAGAC                -2.16
 4  CGCAAGCAAUAUUACGCAAC                -3.19
 5  GAAUAGCAAUAUUACGAGCG                -1.62
 6  CACUAGCAAUAUUACGCCAG                 -1.1
 7  ACUCAGCAAUAUUACGCUGU                -3.46
 8  UCCUAGCAAUAUUACGUUUG                -3.11
 9  CCAAAGCAAUAUUACGACCG               -0.022
10  AGGAAGCAAUAUUACGGGGC                -3.49
11  AAGCAGCAAUAUUACGUAUU                -2.12
12  CCAGAGCAAUAUUACGACAG               -0.807
13  CGAAAGCAAUAUUACGGGGC                -4.34
14  UGUGAGCAAUAUUACGUUAG                -2.17
15  GACCAGCAAUAUUACGGUAG               -0.241
16  UAUUAGCAAUAUUACGCCCU                 -1.3
17  AGAUAGCAAUAUUACGGGUC                -3.73
18  ACAAAGCAAUAUUACGAUGU                -3.56
19  AACUAGCAAUAUUACGGUCU               -0.472
20  GCUAAGCAAUAUUACGCAAA                 -2.6
21  AACAAGCAAUAUUACGCCAG                -2.62
22  CUACAGCAAUAUUACGGCGU                -3.49
